Tested on: NOMO1
Experiment: cell viability relative to DMSO control; higher = less cytotoxic
Conditions: HPLM + 10% dialyzed FBS; 48 h; 0.00234 µM
outcome.measure: cell viability (%)
One number for each entry, in %.

compound=C[C@]12CCC\3=C\4CCC(=O)\C=C4CC[C@H]3[C@@H]1CC[C@@]2(O)CC#N outcome_measure="cell viability" result=123
compound=Cc1c[nH]c(-c2cnc(NCCNc3ccc(C#N)cn3)nc2-c2ccc(Cl)cc2Cl)n1 outcome_measure="cell viability" result=85.8
compound="Nc1ncnc2c1c(-c1cccc(OCc3ccccc3)c1)cn2C1CC(CN2CCCC2)C1 (centres undefined)" outcome_measure="cell viability" result=133
compound=CO/N=C(\C(=O)N[C@@H]1C(=O)N2C(C(=O)OCOC(=O)C(C)(C)C)=C(/C=C\c3scnc3C)CS[C@H]12)c1csc(N)n1 outcome_measure="cell viability" result=111
compound=CN(C)CCN1C(=O)c2cccc3cc(N)cc(c23)C1=O outcome_measure="cell viability" result=122
compound=O.O.CCN1CCN(C(=O)N[C@H](C(=O)N[C@H]2[C@@H]3SC\C(=C(/N3C2=O)C(O)=O)CSC4=NN=N[N]4C)C5=CC=C(O)C=C5)C(=O)C1=O outcome_measure="cell viability" result=86.9
compound=O=C1NC(=O)/C(=C/c2ccc(-c3ccc(F)cc3O)o2)S1 outcome_measure="cell viability" result=126
compound=NC/1=N/C(=O)N(/C=N1)[C@@H]2O[C@H](CO)[C@@H](O)[C@H]2O outcome_measure="cell viability" result=108

Now consider a different compound.
## Task // lookup cell viability for `COc1cc(C(=O)NS(=O)(=O)c2ccccc2C)ccc1Cc1cn(C)c2ccc(NC(=O)OC3CCCC3)cc12`
## Result 66.3

Cited source: the supplement of paper PMC11451515
